Exercise: state measured λmax Absorp. (nm) for each of the molecules provided.
Experiment: Absorbance and fluorescence emission spectra (SpectraMax M2)
Type: physicochemical
Settings: MKCA compound library; absorbance maximum
Experimental: BDC-8 (Blue): absorbance λmax=473 nm, emission λmax=585 nm; MK101-8 (Green): absorbance λmax=474 nm, emission λmax=563 nm; MKHA374-48 (Yellow): absorbance λmax=468 nm, λem=557 nm. The corresponding spectra of a reported BODIPY (BD-27; Red) are also included for comparison: absorbance λmax=551 nm, emission λmax=568 nm. […] ^1H-NMR, ^19F-NMR and ^13C-NMR spectra were recorded on Bruker ACF300 (300 MHz), DPX300 (300 MHz) and AMX500 (500 MHz) spectrometers. […]
Provide only the numeric value, understood in nm.

Query :: What does the data say about its λmax Absorp. (nm)? Entry: CN(Cc1ccccc1)C1=[N+]2C(=C(c3ccc(NC(=O)CCl)cc3)c3ccc(-n4cc(CO)nn4)n3[B-]2(F)F)C=C1 [MKCA195-70]
Result :: 465

Query :: What does the data say about its λmax Absorp. (nm)? Entry: CC1CN(C2=[N+]3C(=C(c4ccc(NC(=O)CCl)cc4)c4ccc(-n5cc(CO)nn5)n4[B-]3(F)F)C=C2)CC(C)O1 (stereo not shown) [MKCA20-70]
Result :: 469

Query :: What does the data say about its λmax Absorp. (nm)? Entry: Cc1ccccc1CNC1=[N+]2C(=C(c3ccc(NC(=O)CCl)cc3)c3ccc(-n4cc(CCc5ccccc5)nn4)n3[B-]2(F)F)C=C1 [MKCA101-19]
Result :: 463

Query :: What does the data say about its λmax Absorp. (nm)? Entry: COc1ccc(OC)c(CNC2=[N+]3C(=C(c4ccc(NC(=O)CCl)cc4)c4ccc(-n5cc(C6CCCC6)nn5)n4[B-]3(F)F)C=C2)c1 [MKCA181-5]
Result :: 465

Query :: What does the data say about its λmax Absorp. (nm)? Entry: O=C(CCl)Nc1ccc(C2=C3C=CC(N4CCc5ccccc5C4)=[N+]3[B-](F)(F)n3c2ccc3-n2cc(CC3CCCCC3)nn2)cc1 [MKCA66-8]
Result :: 469

Query :: What does the data say about its λmax Absorp. (nm)? Entry: COc1ccc(OC)c(CNC2=[N+]3C(=C(c4ccc(NC(=O)CCl)cc4)c4ccc(-n5cc(C6CC6)nn5)n4[B-]3(F)F)C=C2)c1 [MKCA181-4]
Result :: 464

Query :: What does the data say about its λmax Absorp. (nm)? Entry: CC(C)Cc1cn(-c2ccc3n2[B-](F)(F)[N+]2=C(N4CCCC4)C=CC2=C3c2ccc(NC(=O)CCl)cc2)nn1 [MKCA215-43]
Result :: 461

Query :: What does the data say about its λmax Absorp. (nm)? Entry: CN(Cc1ccccc1)C1=[N+]2C(=C(c3ccc(NC(=O)CCl)cc3)c3ccc(-n4cc(C5CCCC5)nn4)n3[B-]2(F)F)C=C1 [MKCA195-5]
Result :: 467

Query :: What does the data say about its λmax Absorp. (nm)? Entry: CC(C)Cc1cn(-c2ccc3n2[B-](F)(F)[N+]2=C(N4CC(C)OC(C)C4)C=CC2=C3c2ccc(NC(=O)CCl)cc2)nn1 (stereo not shown) [MKCA20-43]
Result :: 468

Query :: What does the data say about its λmax Absorp. (nm)? Entry: Cc1ccccc1CNC1=[N+]2C(=C(c3ccc(NC(=O)CCl)cc3)c3ccc(-n4cc(CC(C)C)nn4)n3[B-]2(F)F)C=C1 [MKCA101-43]
Result :: 466

Query :: What does the data say about its λmax Absorp. (nm)? Entry: CC1CN(C2=[N+]3C(=C(c4ccc(NC(=O)CCl)cc4)c4ccc(-n5cc(C6CC6)nn5)n4[B-]3(F)F)C=C2)CC(C)O1 (stereo not shown) [MKCA20-4]
Result :: 466

Query :: What does the data say about its λmax Absorp. (nm)? Entry: CCOc1ccccc1CNC1=[N+]2C(=C(c3ccc(NC(=O)CCl)cc3)c3ccc(-n4cc(CCc5ccccc5)nn4)n3[B-]2(F)F)C=C1 [MKCA103-19]
Result :: 464

Query :: What does the data say about its λmax Absorp. (nm)? Entry: CCCCCC(O)c1cn(-c2ccc3n2[B-](F)(F)[N+]2=C(N4CC(C)OC(C)C4)C=CC2=C3c2ccc(NC(=O)CCl)cc2)nn1 (stereo not shown) [MKCA20-69]
Result :: 469

Query :: What does the data say about its λmax Absorp. (nm)? Entry: CCCCCC(O)c1cn(-c2ccc3n2[B-](F)(F)[N+]2=C(N4CCCC4)C=CC2=C3c2ccc(NC(=O)CCl)cc2)nn1 (stereo not shown) [MKCA215-69]
Result :: 462

Query :: What does the data say about its λmax Absorp. (nm)? Entry: CN(Cc1ccccc1)Cc1cn(-c2ccc3n2[B-](F)(F)[N+]2=C(N4CCCC4)C=CC2=C3c2ccc(NC(=O)CCl)cc2)nn1 [MKCA215-18]
Result :: 461

Query :: What does the data say about its λmax Absorp. (nm)? Entry: CC1CN(C2=[N+]3C(=C(c4ccc(NC(=O)CCl)cc4)c4ccc(-n5cc(CC6CCCCC6)nn5)n4[B-]3(F)F)C=C2)CC(C)O1 (stereo not shown) [MKCA20-8]
Result :: 466

Query :: What does the data say about its λmax Absorp. (nm)? Entry: COc1ccc(OC)c(CNC2=[N+]3C(=C(c4ccc(NC(=O)CCl)cc4)c4ccc(-n5cc(CC6CCCCC6)nn5)n4[B-]3(F)F)C=C2)c1 [MKCA181-8]
Result :: 465

Query :: What does the data say about its λmax Absorp. (nm)? Entry: O=C(CCl)Nc1ccc(C2=C3C=CC(N4CCc5ccccc5C4)=[N+]3[B-](F)(F)n3c2ccc3-n2cc(CO)nn2)cc1 [MKCA66-70]
Result :: 468

Query :: What does the data say about its λmax Absorp. (nm)? Entry: O=C(CCl)Nc1ccc(C2=C3C=CC(N4CCc5ccccc5C4)=[N+]3[B-](F)(F)n3c2ccc3-n2cc(C3CC3)nn2)cc1 [MKCA66-4]
Result :: 469

Query :: What does the data say about its λmax Absorp. (nm)? Entry: O=C(CCl)Nc1ccc(C2=C3C=CC(N4CCCC4)=[N+]3[B-](F)(F)n3c2ccc3-n2cc(C3CCCC3)nn2)cc1 [MKCA215-5]
Result :: 463

Query :: What does the data say about its λmax Absorp. (nm)? Entry: Cc1ccccc1CNC1=[N+]2C(=C(c3ccc(NC(=O)CCl)cc3)c3ccc(-n4cc(CO)nn4)n3[B-]2(F)F)C=C1 [MKCA101-70]
Result :: 465

Query :: What does the data say about its λmax Absorp. (nm)? Entry: CC1CN(C2=[N+]3C(=C(c4ccc(NC(=O)CCl)cc4)c4ccc(-n5cc(CCc6ccccc6)nn5)n4[B-]3(F)F)C=C2)CC(C)O1 (stereo not shown) [MKCA20-19]
Result :: 467

Query :: What does the data say about its λmax Absorp. (nm)? Entry: CCCCCC(O)c1cn(-c2ccc3n2[B-](F)(F)[N+]2=C(NCc4cc(F)cc(F)c4)C=CC2=C3c2ccc(NC(=O)CCl)cc2)nn1 (stereo not shown) [MKCA412-69]
Result :: 465

Query :: What does the data say about its λmax Absorp. (nm)? Entry: CCCc1cn(-c2ccc3n2[B-](F)(F)[N+]2=C(NCc4cc(F)cc(F)c4)C=CC2=C3c2ccc(NC(=O)CCl)cc2)nn1 [MKCA412-48]
Result :: 466

Query :: What does the data say about its λmax Absorp. (nm)? Entry: CCCC(C)c1cn(-c2ccc3n2[B-](F)(F)[N+]2=C(N4CCCC4)C=CC2=C3c2ccc(NC(=O)CCl)cc2)nn1 (stereo not shown) [MKCA215-3]
Result :: 463
